protocolDescription: TD-6450 phase I clinical study (SAD/MAD): pharmacokinetics
Type: in vivo, human
conditionDescription: female, human, plasma, oral, 5 mg, Female subjects, SAD arm NCT02022306, Dose 5.00, 3 Hours; read-out: Concentration
recordedEndpoint: concentration at 3 h
Numeric answer plus unit only.

Give the reported value of concentration at 3 h for this record: CNC(=O)N1C[C@@H](C)N(c2ccc(C(=O)Nc3ccc(-c4ccc(-c5c[nH]c([C@@H]6CCCN6C(=O)[C@@H](NC(=O)OC)C(C)C)n5)cc4)c(OC(F)(F)F)c3)cn2)C[C@@H]1C
3.81 ng/mL

----------
protocolDescription: TD-6450 phase I clinical study (SAD/MAD): pharmacokinetics
Format: in vivo, human
conditionDescription: female, human, plasma, oral, 0.5 mg, Female subjects, SAD arm NCT02022306, Dose 0.50, 4 Hours; read-out: Concentration
recordedEndpoint: concentration at 4 h (ng/mL)
Give bare numbers, in ng/mL.

Give the reported value of concentration at 4 h for this record: CNC(=O)N1C[C@@H](C)N(c2ccc(C(=O)Nc3ccc(-c4ccc(-c5c[nH]c([C@@H]6CCCN6C(=O)[C@@H](NC(=O)OC)C(C)C)n5)cc4)c(OC(F)(F)F)c3)cn2)C[C@@H]1C
0.48

----------
Would you kindly list pIC50 for each of these compounds?
System: mature stage V gametocytes (NF54 strain)
protocolDescription: High-throughput screening: killing effect by MitoTracker staining, primary screening at 1.11 µM and dose-response analysis
Assay type: cell-based, Plasmodium falciparum
conditionDescription: Plasmodium falciparum, NF54, 24 h, stage V gametocytes NF54, 24 h, dose-response analysis; N/A = not active in dose-response analysis; read-out: Killing IC50
Answers are plain numbers, as −log10 of the molar value.

Tell me its pIC50 on mature stage V gametocytes (NF54 strain): COC(=O)C[C@](O)(CCCC(C)(C)O)C(=O)O[C@@H]1C(OC)=C[C@]23CCCN2CCc2cc4c(cc2[C@H]13)OCO4
5.76

Tell me its pIC50 on mature stage V gametocytes (NF54 strain): Cc1cc(Nc2ncc(Cl)c(Nc3ccccc3S(=O)(=O)C(C)C)n2)c(OC(C)C)cc1C1CCNCC1
5.00

Continuing:
Tell me its pIC50 on mature stage V gametocytes (NF54 strain): O=C(NCCN1CCCC1)c1cc(-c2ccc(CN3CCOCC3)cc2)nc2ccc(F)cc12
5.77
